# Test System: human P2X4 (Homo sapiens, UniProt Q99571)
# Sequence (Q99571 whole entry): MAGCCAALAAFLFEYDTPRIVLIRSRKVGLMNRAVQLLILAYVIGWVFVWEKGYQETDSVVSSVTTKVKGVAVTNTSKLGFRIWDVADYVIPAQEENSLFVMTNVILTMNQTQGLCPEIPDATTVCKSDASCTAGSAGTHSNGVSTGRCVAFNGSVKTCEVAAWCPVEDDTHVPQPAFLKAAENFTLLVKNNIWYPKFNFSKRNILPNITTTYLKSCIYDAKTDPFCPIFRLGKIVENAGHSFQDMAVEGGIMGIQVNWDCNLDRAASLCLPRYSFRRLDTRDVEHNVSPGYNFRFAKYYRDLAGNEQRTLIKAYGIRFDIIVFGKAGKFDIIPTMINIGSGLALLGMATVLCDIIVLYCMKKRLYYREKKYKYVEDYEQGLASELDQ
# Measurement Protocol: Human P2X4 HEK Cell FLIPR Assay
# Format: cell-based
# Condition Set: HEK293, HEK293 cells, agonist Bz-ATP at EC80; percentage of maximal inhibition; read-out: Human P2X4 HEK Cells (FLIPR Assay) avg Efficacy [%]
Experimental Readout: Emax (%)
Please give a number only; it is taken to be in %.

So for Cc1ccc(Cl)c(CC(=O)Nc2ccc(-n3cc(C(F)(F)F)cn3)c(S(N)(=O)=O)c2)c1 , the logged Emax turned out to be 91

Record NS(=O)(=O)c1cc(NC(=O)Cc2ccccc2Cl)cnc1-n1cc(F)cn1 , field Emax: 72

The reported Emax of the compound Cc1nn(C)cc1-c1ccc(NC(=O)Cc2ccccc2Cl)cc1S(N)(=O)=O was 88

The compound Cc1ccc(CC(=O)Nc2ccc(-c3cncc(C(F)(F)F)c3)c(S(N)(=O)=O)c2)c(F)c1 showed Emax equal to 59

// NS(=O)(=O)c1cc(NC(=O)Cc2ccccc2Cl)ccc1-c1cncc(Cl)c1 : Emax value = 94

C[C@H]1CC[C@H](C)N1c1cnn(-c2ccc(NC(=O)Cc3ccccc3Cl)cc2S(N)(=O)=O)c1 (single isomer, unassigned) has a reported Emax of 76

Value of measured Emax for the entry NS(=O)(=O)c1cc(NC(=O)Cc2cccc(F)c2)ccc1-n1cc(C(F)(F)F)cn1 : 69

Notebook: CN(C)c1ncn(-c2ccc(NC(=O)Cc3ccccc3Cl)cc2S(N)(=O)=O)n1 , Emax read as 79

The reported value for NS(=O)(=O)c1cc(NC(=O)Cc2ccc(F)cc2)ccc1-n1cc(C(F)(F)F)cn1 in terms of Emax is 55

Memo: Cc1ccccc1CC(=O)Nc1ccc(-c2cnn(C(F)F)c2)c(S(N)(=O)=O)c1 , reported Emax: 87

Quick note, Emax for NS(=O)(=O)c1cc(NC(=O)Cc2ccccc2Cl)ccc1-n1cc(C2CC2)cn1 landed at 82

Reported Emax for COc1ccc(CC(=O)Nc2ccc(-n3cc(F)cn3)c(S(N)(=O)=O)c2)cc1 was 74

The recorded Emax for N#Cc1cnn(-c2ccc(NC(=O)Cc3ccccc3OC(F)F)cc2S(N)(=O)=O)c1 is 86

Record summary for N#Cc1cnn(-c2cc(C(F)(F)F)c(NC(=O)Cc3ccccc3Cl)cc2S(N)(=O)=O)c1 : reported Emax = 63

Sample NS(=O)(=O)c1cc(NC(=O)Cc2ccc(C(F)F)cc2)ccc1-c1cncc(F)c1 ; Emax observed: 91

Note to self: Emax recorded for NS(=O)(=O)c1cc(NC(=O)Cc2cc(C(F)(F)F)ccc2Cl)c(C(F)(F)F)cc1-n1cc(C(F)(F)F)cn1 was 17
